B1: LINE1-full (parent)
chain: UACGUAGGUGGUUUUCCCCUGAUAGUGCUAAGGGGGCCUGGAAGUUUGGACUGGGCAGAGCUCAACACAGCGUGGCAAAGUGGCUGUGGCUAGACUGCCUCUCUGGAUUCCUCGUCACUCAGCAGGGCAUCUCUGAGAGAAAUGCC

- Variants of: B1
- TEST_PROTOCOL: self-cleavage, relative activity (ratio to wild type); higher = more cleavage; in vitro, sequencing; the parent is a self-cleaving ribozyme
Assign yes to entries whose self-cleavage meets or exceeds 1; assign no to the rest.

MUTANT_LABEL	DISCRETE_LABEL
G21U A136G	yes
C37U C128A	yes
C61U U130C	no
U13A U20A	yes
U102G U143A	no
C38U A94G	no
U9C C146U	yes
G32A C51U	no
A30G A42G	no
U23C U132C	yes
U85C U134G	no
